target: T1, recombinant cynoPD-1 (construct not stated) (cynomolgus monkey, UniProt B0LAJ3 25-170); experiment: ELISA
T1 construct: not shown: probably His as elsewhere
T1 sequence (B0LAJ3 entry or part of it limits assumed): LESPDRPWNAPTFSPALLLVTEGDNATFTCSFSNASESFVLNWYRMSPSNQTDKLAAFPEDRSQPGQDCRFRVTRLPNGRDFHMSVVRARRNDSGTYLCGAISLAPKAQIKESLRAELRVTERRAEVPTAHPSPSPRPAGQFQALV

- binder: "XVT458-z2-m4 (antibody, V domains shown, IgG format; also called z2_XVT458m4) VH: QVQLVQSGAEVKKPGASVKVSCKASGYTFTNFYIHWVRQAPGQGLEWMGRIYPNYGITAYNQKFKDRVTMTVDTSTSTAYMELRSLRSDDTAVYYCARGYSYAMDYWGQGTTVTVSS VL: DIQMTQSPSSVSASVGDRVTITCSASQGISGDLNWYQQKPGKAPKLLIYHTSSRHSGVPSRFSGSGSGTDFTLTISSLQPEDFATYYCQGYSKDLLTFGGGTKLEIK"
  endpoint.unit: "pM"
  EC50: 98
- binder: "XVT458-z2-m2 (antibody, V domains shown, IgG format; also called z2_XVT458m2) VH: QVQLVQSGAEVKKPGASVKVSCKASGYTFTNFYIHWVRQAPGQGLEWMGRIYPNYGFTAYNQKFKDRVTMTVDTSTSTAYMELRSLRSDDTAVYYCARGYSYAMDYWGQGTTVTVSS VL: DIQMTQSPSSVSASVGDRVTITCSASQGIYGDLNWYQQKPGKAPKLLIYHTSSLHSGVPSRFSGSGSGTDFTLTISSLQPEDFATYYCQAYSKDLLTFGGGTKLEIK"
  endpoint.unit: "pM"
  EC50: 86
- binder: "XVT458-z2-m6 (antibody, V domains shown, IgG format; also called z2_XVT458m6) VH: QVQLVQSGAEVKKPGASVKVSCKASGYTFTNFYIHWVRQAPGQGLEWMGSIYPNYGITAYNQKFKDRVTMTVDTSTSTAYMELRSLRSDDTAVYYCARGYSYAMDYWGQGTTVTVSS VL: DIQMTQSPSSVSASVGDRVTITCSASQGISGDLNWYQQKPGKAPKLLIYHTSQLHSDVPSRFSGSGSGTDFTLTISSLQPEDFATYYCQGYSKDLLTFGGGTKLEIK"
  endpoint.unit: "pM"
  EC50: 71
- binder: "XVT458-z2-m1 (antibody, V domains shown, IgG format; also called z2-XVT458-m1; z2_XVT458m1) VH: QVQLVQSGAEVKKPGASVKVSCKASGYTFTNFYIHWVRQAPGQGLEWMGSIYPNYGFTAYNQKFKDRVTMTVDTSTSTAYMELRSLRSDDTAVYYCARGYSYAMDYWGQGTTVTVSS VL: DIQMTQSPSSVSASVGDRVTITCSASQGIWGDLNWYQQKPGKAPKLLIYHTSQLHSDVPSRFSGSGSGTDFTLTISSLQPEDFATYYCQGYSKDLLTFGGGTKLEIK"
  endpoint.unit: "pM"
  EC50: 87

Reference for the values: patent US20260207767A1
